experiment: Single intravenous dose escalation of P5P, plasma pharmacokinetics (Examples Two and Three); format: in vivo, human; conditions: both sexes, human, plasma, iv, 1 mg/kg, Group 1, P5P 1 mg/kg single iv; plasma P5P; mean; read-out: AUC (O-t)
recordedMetric: AUC

>>> observed("Cc1ncc(COP(=O)(O)O)c(C=O)c1O [P5P, Pyridoxal 5′-phosphate, reference compound]")
"38.4 µg·h/mL"

----------
assay: Single intravenous dose escalation of P5P, plasma pharmacokinetics (Examples Two and Three); type: in vivo, human; details: both sexes, human, plasma, iv, 1 mg/kg, Group 1, P5P 1 mg/kg single iv; plasma PAL; mean
recordedMetric: MRT (h)

>>> observed("Cc1ncc(CO)c(C=O)c1O")
3.7
